- tgt: 5-hydroxytryptamine receptor 6 (Homo sapiens)
- Sequence (P50406 whole entry): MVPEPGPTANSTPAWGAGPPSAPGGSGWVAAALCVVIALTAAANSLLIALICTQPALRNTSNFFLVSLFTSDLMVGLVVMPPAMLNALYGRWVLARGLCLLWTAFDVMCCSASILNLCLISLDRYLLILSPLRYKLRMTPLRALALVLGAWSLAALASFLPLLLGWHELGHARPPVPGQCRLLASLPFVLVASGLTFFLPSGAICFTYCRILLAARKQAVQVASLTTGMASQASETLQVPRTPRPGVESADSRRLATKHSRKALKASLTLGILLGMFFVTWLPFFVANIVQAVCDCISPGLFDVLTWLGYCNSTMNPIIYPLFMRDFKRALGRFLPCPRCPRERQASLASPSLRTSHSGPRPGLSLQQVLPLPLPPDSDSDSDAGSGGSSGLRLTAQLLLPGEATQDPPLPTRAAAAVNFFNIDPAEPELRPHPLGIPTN
- assay_info: Binding affinity to human recombinant 5-HT6 receptor by radioligand displacement assay
pKi: −log10 of the molar value.
Provide the recorded pKi for the entries that follow.

Query (molecule): CCNC(=O)Nc1cccc(CCN2CCN(c3cccc4nc(C)ccc34)CC2)c1 ; field requested: pKi
< 5.20

Query (molecule): CC(=O)Nc1cccc(CCN2CCN(c3cccc4nc(C)ccc34)CC2)c1 ; field requested: pKi
< 5.40

Query (molecule): Cc1ccc2c(N3CCN(CCc4cccc(NC(=O)c5cnccn5)c4)CC3)cccc2n1 ; field requested: pKi
6.10

Query (molecule): Cc1ccc2c(N3CCN(CCc4cccc(NC(=O)c5ccccc5)c4)CC3)cccc2n1 ; field requested: pKi
< 6.00

Query (molecule): Cc1ccc2c(N3CCN(CCc4cccc(N5CCOC5=O)c4)CC3)cccc2n1 ; field requested: pKi
5.50

Query (molecule): Cc1ccc2c(N3CCN(CCc4cccc(N5CCNC5=O)c4)CC3)cccc2n1 ; field requested: pKi
< 5.30

Query (molecule): Cc1ccc2c(N3CCN(CCc4cccc(NS(C)(=O)=O)c4)CC3)cccc2n1 ; field requested: pKi
< 5.60

Query (molecule): COC(=O)Nc1cccc(CCN2CCN(c3cccc4nc(C)ccc34)CC2)c1 ; field requested: pKi
< 5.80

Query (molecule): Cc1ccc2c(N3CCN(CCc4cccc(-n5cccn5)c4)CC3)cccc2n1 ; field requested: pKi
< 5.00

Query (molecule): Cc1ccc2c(N3CCN(CCc4cccc(NC(=O)Nc5ccccc5)c4)CC3)cccc2n1 ; field requested: pKi
6.50

----------
- assay_info: Clearance in Sprague-Dawley rat at 0.5 mg/kg, iv after 24 hrs
- Type: ADME, organism-based
- Parameters: dose 0.5 mg/kg, route intravenous
- measurement_setup: in vivo
quantity_kind: clearance (mL/min/kg)
Record the value in mL/min/kg, omitting the unit from your answer.

Query (compound): Cc1ccc2c(N3CCN(CCc4cccc(NS(C)(=O)=O)c4)CC3)cccc2n1.Cl.Cl ; field requested: clearance
7

Query (compound): Cc1ccc2c(N3CCN(CCc4cccc(N5CCNC5=O)c4)CC3)cccc2n1.Cl.Cl ; field requested: clearance
11

Query (compound): CC(=O)Nc1cccc(CCN2CCN(c3cccc4nc(C)ccc34)CC2)c1.Cl.Cl ; field requested: clearance
10

----------
- tgt: 5-hydroxytryptamine receptor 1A (Homo sapiens)
- Sequence (P08908 whole entry): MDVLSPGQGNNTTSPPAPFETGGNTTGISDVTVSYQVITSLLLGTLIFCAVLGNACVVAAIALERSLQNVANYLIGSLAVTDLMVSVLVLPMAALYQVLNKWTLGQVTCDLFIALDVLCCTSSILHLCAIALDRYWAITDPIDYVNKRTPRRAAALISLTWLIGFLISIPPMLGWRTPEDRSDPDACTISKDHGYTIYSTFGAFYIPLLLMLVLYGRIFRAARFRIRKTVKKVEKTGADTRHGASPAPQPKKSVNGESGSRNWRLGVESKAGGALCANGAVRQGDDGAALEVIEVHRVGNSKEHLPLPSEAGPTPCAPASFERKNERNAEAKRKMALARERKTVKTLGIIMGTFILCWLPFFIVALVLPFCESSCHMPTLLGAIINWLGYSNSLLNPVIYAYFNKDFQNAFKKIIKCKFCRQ
- assay_info: Displacement of [3H]WAY100635 from human recombinant 5-HT1A receptor expressed in CHO cells
quantity_kind: pKi
The quantity pKi is defined as the negative base-10 logarithm of the molar concentration.

Provide the documented pKi with 5-hydroxytryptamine receptor 1A (Homo sapiens) as the system for Cc1ccc2c(N3CCN(CCc4cccc(NC(=O)c5cnccn5)c4)CC3)cccc2n1
9.30

Provide the documented pKi with 5-hydroxytryptamine receptor 1A (Homo sapiens) as the system for COC(=O)Nc1cccc(CCN2CCN(c3cccc4nc(C)ccc34)CC2)c1
9.40

Provide the documented pKi with 5-hydroxytryptamine receptor 1A (Homo sapiens) as the system for CCNC(=O)Nc1cccc(CCN2CCN(c3cccc4nc(C)ccc34)CC2)c1
8.70

Provide the documented pKi with 5-hydroxytryptamine receptor 1A (Homo sapiens) as the system for Cc1ccc2c(N3CCN(CCc4cccc(NC(=O)C(C)(C)C)c4)CC3)cccc2n1
8.20

Provide the documented pKi with 5-hydroxytryptamine receptor 1A (Homo sapiens) as the system for Cc1ccc2c(N3CCN(CCc4cccc(NC(=O)Nc5ccccc5F)c4)CC3)cccc2n1
8.50

Provide the documented pKi with 5-hydroxytryptamine receptor 1A (Homo sapiens) as the system for Cc1ccc2c(N3CCN(CCc4cccc(NC(=O)Nc5ccc(F)cc5)c4)CC3)cccc2n1
8.60

Provide the documented pKi with 5-hydroxytryptamine receptor 1A (Homo sapiens) as the system for Cc1ccc2c(N3CCN(CCc4cccc(NC(=O)c5csc(C)n5)c4)CC3)cccc2n1
9.10

Provide the documented pKi with 5-hydroxytryptamine receptor 1A (Homo sapiens) as the system for CCCS(=O)(=O)Nc1cccc(CCN2CCN(c3cccc4nc(C)ccc34)CC2)c1
8.80

Provide the documented pKi with 5-hydroxytryptamine receptor 1A (Homo sapiens) as the system for COc1ccccc1C(=O)Nc1cccc(CCN2CCN(c3cccc4nc(C)ccc34)CC2)c1
8.60

Provide the documented pKi with 5-hydroxytryptamine receptor 1A (Homo sapiens) as the system for CCCNC(=O)Nc1cccc(CCN2CCN(c3cccc4nc(C)ccc34)CC2)c1
8.30

----------
- assay_info: Cmax in Sprague-Dawley rat at 1 mg/kg, po after 24 hrs
- Format: ADME, organism-based
- Parameters: dose 1 mg/kg, route oral
- measurement_setup: in vivo
Provide the recorded Cmax for the entries that follow.
Record the value in ng/mL, omitting the unit from your answer.

Query (compound): Cc1ccc2c(N3CCN(CCc4cccc(NS(C)(=O)=O)c4)CC3)cccc2n1.Cl.Cl ; field requested: Cmax
243

Query (compound): CC(=O)Nc1cccc(CCN2CCN(c3cccc4nc(C)ccc34)CC2)c1.Cl.Cl ; field requested: Cmax
98

Query (compound): Cc1ccc2c(N3CCN(CCc4cccc(N5CCNC5=O)c4)CC3)cccc2n1.Cl.Cl ; field requested: Cmax
122

----------
- assay_info: Half life in dog at 0.5 mg/kg, iv
- measurement_setup: in vivo
quantity_kind: half-life (min)
Record the value in min, omitting the unit from your answer.

Query (compound): Cc1ccc2c(N3CCN(CCc4cccc(N5CCNC5=O)c4)CC3)cccc2n1.Cl.Cl ; field requested: half-life
48

----------
- assay_info: in vivo
- measurement_setup: dog, po, 10 mg/kg
quantity_kind: Cmax (ng/mL)
Record the value in ng/mL, omitting the unit from your answer.

Query (compound): Cc1ccc2c(N3CCN(CCc4cccc(N5CCNC5=O)c4)CC3)cccc2n1.Cl.Cl ; field requested: Cmax
1300

----------
- tgt: Cytochrome P450 2D6 (Homo sapiens)
- Sequence (P10635 whole entry): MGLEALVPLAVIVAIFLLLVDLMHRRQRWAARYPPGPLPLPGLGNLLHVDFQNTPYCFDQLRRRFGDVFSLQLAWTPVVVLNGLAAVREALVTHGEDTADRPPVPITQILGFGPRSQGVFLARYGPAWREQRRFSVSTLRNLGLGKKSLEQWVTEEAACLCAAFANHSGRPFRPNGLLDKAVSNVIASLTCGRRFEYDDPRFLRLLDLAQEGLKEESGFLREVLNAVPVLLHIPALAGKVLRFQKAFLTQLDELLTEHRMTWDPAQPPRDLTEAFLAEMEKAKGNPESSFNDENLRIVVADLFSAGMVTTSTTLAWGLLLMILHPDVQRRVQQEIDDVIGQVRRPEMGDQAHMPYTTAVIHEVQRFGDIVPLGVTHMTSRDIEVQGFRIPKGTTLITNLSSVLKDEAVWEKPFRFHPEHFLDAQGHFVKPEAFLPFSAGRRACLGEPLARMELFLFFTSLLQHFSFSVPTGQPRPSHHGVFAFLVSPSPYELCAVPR
- assay_info: Inhibition of human recombinant CYP2D6
quantity_kind: pIC50
The quantity pIC50 is defined as the negative base-10 logarithm of the molar concentration.

Query (compound): Cc1ccc2c(N3CCN(CCc4cccc(N5CCNC5=O)c4)CC3)cccc2n1 ; field requested: pIC50
4.07

----------
- assay_info: Plasma protein binding in dog at 1 ug/mL by equilibrium dialysis method
quantity_kind: fraction unbound at 1 ug/mL

Query (molecule): Cc1ccc2c(N3CCN(CCc4cccc(N5CCNC5=O)c4)CC3)cccc2n1 [GSK163090] ; field requested: fraction unbound at 1 ug/mL
0.045

----------
- assay_info: Oral bioavailability in Sprague-Dawley rat at 1 mg/kg, po after 24 hrs
- Assay type: ADME, organism-based
- measurement_setup: in vivo
quantity_kind: bioavailability
Show the value, then the unit it is measured in.

Query (compound): Cc1ccc2c(N3CCN(CCc4cccc(NS(C)(=O)=O)c4)CC3)cccc2n1.Cl.Cl ; field requested: bioavailability
56%

Query (compound): Cc1ccc2c(N3CCN(CCc4cccc(N5CCNC5=O)c4)CC3)cccc2n1.Cl.Cl ; field requested: bioavailability
58%

Query (compound): CC(=O)Nc1cccc(CCN2CCN(c3cccc4nc(C)ccc34)CC2)c1.Cl.Cl ; field requested: bioavailability
51%

----------
- assay_info: in vivo
- measurement_setup: cynomolgus monkey, plasma, po, 10 mg/kg
quantity_kind: AUC(0-inf) (ng·h/mL)
Record the value in ng·h/mL, omitting the unit from your answer.

Query (molecule): Cc1ccc2c(N3CCN(CCc4cccc(N5CCNC5=O)c4)CC3)cccc2n1.Cl.Cl ; field requested: AUC(0-inf)
4220

----------
- tgt: 5-hydroxytryptamine receptor 1D (Homo sapiens)
- Sequence (P28221 whole entry): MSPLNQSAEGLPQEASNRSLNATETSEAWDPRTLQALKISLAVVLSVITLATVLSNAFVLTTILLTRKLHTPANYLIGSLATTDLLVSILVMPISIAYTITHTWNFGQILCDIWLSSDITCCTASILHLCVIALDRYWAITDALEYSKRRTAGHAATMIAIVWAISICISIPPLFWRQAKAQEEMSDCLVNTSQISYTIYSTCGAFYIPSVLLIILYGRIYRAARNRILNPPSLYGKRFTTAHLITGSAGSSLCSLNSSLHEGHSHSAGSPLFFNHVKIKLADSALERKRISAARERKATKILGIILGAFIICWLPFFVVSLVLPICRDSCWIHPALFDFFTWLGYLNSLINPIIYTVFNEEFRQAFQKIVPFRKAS
- assay_info: Displacement of [3H]5-HT from human recombinant 5-HT1D receptor expressed in CHO cells
- Type: cell-based
Provide the recorded Ki for the entries that follow.
Record the value in nM, omitting the unit from your answer.

Query (compound): CCCS(=O)(=O)Nc1cccc(CCN2CCN(c3cccc4nc(C)ccc34)CC2)c1 ; field requested: Ki
0.631

Query (compound): Cc1ccc2c(N3CCN(CCc4cccc(NC(=O)Nc5cccc(F)c5)c4)CC3)cccc2n1 ; field requested: Ki
0.631

Query (compound): CCCNC(=O)Nc1cccc(CCN2CCN(c3cccc4nc(C)ccc34)CC2)c1 ; field requested: Ki
0.158

Query (compound): Cc1ccc2c(N3CCN(CCc4cccc(NC(=O)c5ccccc5)c4)CC3)cccc2n1 ; field requested: Ki
0.316

Query (compound): Cc1ccc2c(N3CCN(CCc4cccc(NC(=O)Nc5ccc(F)cc5)c4)CC3)cccc2n1 ; field requested: Ki
0.501

Query (compound): Cc1ccc2c(N3CCN(CCc4cccc(N)c4)CC3)cccc2n1 ; field requested: Ki
0.501

Query (compound): Cc1ccc2c(N3CCN(CCc4cccc(-n5cccn5)c4)CC3)cccc2n1 ; field requested: Ki
0.158

Query (compound): Cc1ccc2c(N3CCN(CCc4cccc(N5CCOC5=O)c4)CC3)cccc2n1 ; field requested: Ki
0.158

Query (compound): Cc1ccc2c(N3CCN(CCc4cccc(N5CCCNC5=O)c4)CC3)cccc2n1 ; field requested: Ki
0.316

Query (compound): Cc1ccc2c(N3CCN(CCc4cccc(NC(=O)c5scnc5C)c4)CC3)cccc2n1 ; field requested: Ki
0.251

Query (compound): Cc1ccc2c(N3CCN(CCc4cccc(NC(=O)c5cnccn5)c4)CC3)cccc2n1 ; field requested: Ki
0.2

Query (compound): Cc1ccc2c(N3CCN(CCc4cccc(NC(=O)Nc5ccccc5F)c4)CC3)cccc2n1 ; field requested: Ki
0.2

Query (compound): CC(=O)N(C)c1cccc(CCN2CCN(c3cccc4nc(C)ccc34)CC2)c1 ; field requested: Ki
0.316

Query (compound): CCOC(=O)Nc1cccc(CCN2CCN(c3cccc4nc(C)ccc34)CC2)c1 ; field requested: Ki
0.126

Query (compound): CCC(=O)Nc1cccc(CCN2CCN(c3cccc4nc(C)ccc34)CC2)c1 ; field requested: Ki
0.2

Query (compound): COc1ccc(C(=O)Nc2cccc(CCN3CCN(c4cccc5nc(C)ccc45)CC3)c2)cc1 ; field requested: Ki
0.501

Query (compound): Cc1ccc2c(N3CCN(CCc4cccc(NC(=O)c5ccc(F)cc5)c4)CC3)cccc2n1 ; field requested: Ki
0.398

Query (compound): Cc1ccc2c(N3CCN(CCc4cccc(NC(=O)c5ccccc5F)c4)CC3)cccc2n1 ; field requested: Ki
0.251

Query (compound): CCNC(=O)Nc1cccc(CCN2CCN(c3cccc4nc(C)ccc34)CC2)c1 ; field requested: Ki
0.158

Query (compound): Cc1ccc2c(N3CCN(CCc4cccc(NC(=O)C(C)(C)C)c4)CC3)cccc2n1 ; field requested: Ki
0.316

Query (compound): Cc1ccc2c(N3CCN(CCc4cccc(NC(=O)c5csc(C)n5)c4)CC3)cccc2n1 ; field requested: Ki
0.398

Query (compound): Cc1ccc2c(N3CCN(CCc4cccc(N5C(=O)CCC5=O)c4)CC3)cccc2n1 ; field requested: Ki
1.58

Query (compound): Cc1ccc2c(N3CCN(CCc4cccc(NC(=O)NC(C)(C)C)c4)CC3)cccc2n1 ; field requested: Ki
0.251

Query (compound): COc1cccc(C(=O)Nc2cccc(CCN3CCN(c4cccc5nc(C)ccc45)CC3)c2)c1 ; field requested: Ki
0.158

Query (compound): COc1ccccc1C(=O)Nc1cccc(CCN2CCN(c3cccc4nc(C)ccc34)CC2)c1 ; field requested: Ki
0.631
